# run_description: TOX21_p53_BLA_p5_viability: Viability Assessment in the Tox21 HCT-116 p53 Agonism Beta-lactamase Assay, Phase 5 (AID 2283600)
Inconclusive results are not listed. The source made the active and inactive calls. Rule for the calls: active = hit-call score of the fitted dose curve at least 0.9, where 1 is the maximum; inconclusive = response in the unintended direction; inactive = score below 0.9.
Classes used: Yes for active, No for inactive

| compound | label |
| --- | --- |
| CC(C)(O)c1ccc(CNC(=O)c2cccnc2Oc2ccc(F)cc2)cc1 | No |
| O=C1OC(c2ccc(O)cc2)(c2ccc(O)cc2)c2ccccc21 | No |
| CCCCCCCCCC[N+](C)(C)[O-] | No |
| CCCCCCCCCCCCCCOS(=O)(=O)O | Yes |
| CC1(C)C(=O)NC(=O)N1CO | No |
| Cc1cc(SC2=C(O)C[C@@](CCc3ccc(N)cc3)(C(C)C)OC2=O)c(C(C)(C)C)cc1CO | No |
| COC(=O)[C@H]1[C@H]2C[C@@H]3c4[nH]c5cc(OC)ccc5c4CCN3C[C@H]2C[C@@H](OC(=O)c2cc(OC)c(OC)c(OC)c2)[C@@H]1OC | No |
| NC(=Nc1ccccc1)Nc1ccccc1 | No |
| O=C(O)c1[nH]n(-c2ccc(S(=O)(=O)O)cc2)c(=O)c1N=Nc1ccc(S(=O)(=O)O)cc1 | No |
| O=C1c2c(O)cccc2Cc2cccc(O)c21 | No |
| CCCC[C@H]1CN(CC2CCOCC2)C(=O)OC12CCN(C1(C)CCN(C(=O)c3c(C)ncnc3C)CC1)CC2 | No |
| Nc1nc(Cl)nc2c1ncn2[C@H]1C[C@H](O)[C@@H](CO)O1 | No |
| C=CCc1ccc(OC)c(OC)c1 | No |
| CCCCC(CC)COC(=O)CCCCCCCC(=O)OCC(CC)CCCC (configuration not stated) | No |
| CCc1cc(C2=C(C(=O)O)N(c3ccccc3C(F)(F)F)S(=O)(=O)c3ccccc32)cc2c1OCO2 | No |
| CN(C)CCCN1c2ccccc2Sc2ccc(Cl)cc21 | Yes |
| COC(=O)CCC(=O)OC | No |
| CCCCCCC(CCCCCCCCCCC(=O)OCC(COC(C)=O)OC(C)=O)OC(C)=O (configuration not stated) | No |
| CN(C)C(=O)NC1(c2ccccc2)CCN(CCC[C@]2(c3ccc(Cl)c(Cl)c3)CCCN(C(=O)c3ccccc3)C2)CC1 | No |
| CCCCC(CC)COP(=O)(OCC(CC)CCCC)OCC(CC)CCCC (configuration not stated) | No |
| Cc1ccc(C(C)(C)C)c(O)c1 | No |
| CCCCCCCC(=O)OC | No |

----------
# Read-out: Vascular cell adhesion molecule 1 (VCAM1), VCAM1 (gene 7412)
# run_description: BSK_hDFCGF_VCAM1: BioMAP Diversity Plus: hDFCGF Assay for Vascular cell adhesion molecule 1 (VCAM1) Biomarker Activity (AID 2283065)
# condition_description: primary human foreskin fibroblasts; actives raise or lower the signal
Calls of active or inactive are those of the source. How the source made its calls: active means hit-call score of the fitted dose curve at least 0.9, where 1 is the maximum; inactive means score below 0.9.
Classes used: 1.0 for active, 0.0 for inactive

| molecule | label |
| --- | --- |
| CC(=O)OC1CC(C)OC(C)O1 (centres undefined) | 0.0 |
| CCc1cc(C2=C(C(=O)O)N(c3ccccc3C(F)(F)F)S(=O)(=O)c3ccccc32)cc2c1OCO2 | 0.0 |
| CC(=O)S[C@H](C(=O)N[C@H]1Cc2ccccc2[C@H]2CCC[C@@H](C(=O)O)N2C1=O)C(C)C | 0.0 |
| CN(C)CCCN(C)CCCN(C)C | 0.0 |
| Cc1ccc(C(C)(C)C)c(O)c1 | 0.0 |
| O=C(O)c1[nH]n(-c2ccc(S(=O)(=O)O)cc2)c(=O)c1N=Nc1ccc(S(=O)(=O)O)cc1 | 0.0 |
| CC(COCC(C)OC(=O)c1ccccc1)OC(=O)c1ccccc1 (centres undefined) | 0.0 |
| CC(=O)O[C@]1(C(C)=O)CC[C@H]2[C@@H]3C=C(Cl)C4=CC(=O)[C@@H]5C[C@@H]5[C@]4(C)[C@H]3CC[C@@]21C | 0.0 |
| O=C(N[C@@H](c1ccccc1)[C@@H]1CCCCN1)c1cccc(C(F)(F)F)c1Cl | 0.0 |
| CC(=O)CC(c1ccccc1)c1c(O)c2ccccc2oc1=O (centres undefined) | 0.0 |
| COC(=O)CCC(=O)OC | 0.0 |
| N[C@@H](Cc1c[nH]c2ccccc12)C(=O)O | 0.0 |
| CSc1ccc(Oc2ccc(S(N)(=O)=O)cc2CN(C)C)cc1C | 0.0 |
| O=Cc1ccccc1C=O | 0.0 |
| CCCCC(CC)COC(=O)CCCCCCCC(=O)OCC(CC)CCCC (centres undefined) | 0.0 |
| O=C1OC(c2ccc(O)cc2)(c2ccc(O)cc2)c2ccccc21 | 1.0 |
| CCCCOC(=O)CCCCC(=O)OCCCC | 0.0 |
| NC=O | 0.0 |
| CN(C)C(=O)NC1(c2ccccc2)CCN(CC[C@@]2(c3ccc(F)c(F)c3)CN(C(=O)c3ccccc3)CCO2)CC1 | 0.0 |
| S=c1[nH]c2ccccc2s1 | 0.0 |
| CCCCc1nc2cccnc2n1Cc1ccc(-c2ccccc2-c2nnn[nH]2)cc1 | 0.0 |
| CC(C)c1cccc(C(C)C)c1NC(=O)NS(=O)(=O)c1cc(C(C)(C)O)co1 | 0.0 |
| Oc1ccccc1O | 1.0 |
| CC(N)=O | 0.0 |

----------
# Read-out: Monokine induced gamma interferon (MIG), CXCL9 (gene 4283)
# run_description: BSK_SAg_MIG: BioMAP Diversity Plus: SAg Assay for Monokine induced gamma interferon (MIG) Biomarker Activity (AID 2283092)
# condition_description: primary human HUVEC with PBMC; actives raise or lower the signal
Activity calls are given as the source filed them. How the source made its calls: active means hit-call score of the fitted dose curve at least 0.9, where 1 is the maximum; inactive means score below 0.9.

| compound | AC50 |
| --- | --- |
| O=C(O)CN(CC(=O)O)CC(=O)O | inactive |
| C/C=C/c1ccc(OC)cc1 | inactive |
| Cc1c(C)c2c(c(C)c1O)CCC(C)(COc1ccc(CC3SC(=O)NC3=O)cc1)O2 (centres undefined) | 31.6 µM (active) |
| NC1CCCCC1 | inactive |
| CCCCCCC(C=O)=Cc1ccccc1 | 31.5 µM (active) |
| OCC(CO)n1cnc(-c2ccc(F)cc2)c1-c1ccnc(Oc2ccccc2)n1 | inactive |
| Cn1cnc2c1c(=O)[nH]c(=O)n2C | inactive |
| CCOCCOCCO | inactive |
| CSc1ccc(Oc2ccc(S(N)(=O)=O)cc2CN(C)C)cc1C | inactive |

----------
# Read-out: Interleukin-1 alpha (IL1a), IL1A (gene 3552)
# run_description: BSK_BE3C_IL1a: BioMAP Diversity Plus: BE3C Assay for Interleukin-1 alpha (IL1a) Biomarker Activity (AID 2283016)
# condition_description: primary human bronchial epithelial cells; actives raise or lower the signal
Calls of active or inactive are those of the source. How the source made its calls: active means hit-call score of the fitted dose curve at least 0.9, where 1 is the maximum; inactive means score below 0.9.
Classes used: label 1 = active, label 0 = inactive

| compound | label |
| --- | --- |
| CC(C)OC(=O)C(C)(C)Oc1ccc(C(=O)c2ccc(Cl)cc2)cc1 | label 0 |
| O=C(NS(=O)(=O)/C=C/c1cccs1)c1ccc(F)cc1Br | label 0 |
| Oc1ccccc1O | label 0 |
| CCCCCCCCCCCCCCOS(=O)(=O)O | label 1 |
| CO[C@@H]1COCC[C@@H]1N[C@@H]1CC[C@@](C(=O)N2CCc3ncc(C(F)(F)F)cc3C2)(C(C)C)C1 | label 0 |
| O=C1OC(c2ccc(O)cc2)(c2ccc(O)cc2)c2ccccc21 | label 1 |
| CCCCCCCCCCCCCCCCO | label 0 |
| Cc1cc(Cc2ccc(N)c(C)c2)ccc1N | label 0 |
| CCCC[C@H]1CN(CC2CCOCC2)C(=O)OC12CCN(C1(C)CCN(C(=O)c3c(C)ncnc3C)CC1)CC2 | label 0 |
| CCCCC(CC)COC(=O)CCCCCCCC(=O)OCC(CC)CCCC (configuration not stated) | label 0 |
| CC(C)(C)c1ccccc1 | label 0 |
| CC(C)COC(=O)CCCCC(=O)OCC(C)C | label 0 |

----------
# run_description: ATG_PBREM_CIS: Attagene CIS-FACTORIAL HepG2 Assay for human Phenobarbital-responsive Enhancer Module (PBREM) (AID 2282955)
# condition_description: HepG2 PBREM cis-reporter, Attagene multiplexed transcription; actives raise or lower the signal
Calls of active or inactive are those of the source. How the source made its calls: active means hit-call score of the fitted dose curve at least 0.9, where 1 is the maximum; inactive means score below 0.9.
Classes used: yes (1) = active, no (0) = inactive

| compound | label |
| --- | --- |
| Cc1cn([C@H]2C=C[C@@H](CO)O2)c(=O)[nH]c1=O | no (0) |
| CC(C)(O)c1ccc(CNC(=O)c2cccnc2Oc2ccc(F)cc2)cc1 | no (0) |
| CCCCCCCC(=O)OC | no (0) |
| COC(=O)CCCC(=O)OC | no (0) |
| O=C(NS(=O)(=O)/C=C/c1cccs1)c1ccc(F)cc1Br | no (0) |
| CC(C)(C)c1ccccc1 | no (0) |
| CC1(C)C(=O)NC(=O)N1CO | no (0) |
| c1ccc2occc2c1 | no (0) |
| O=C1OC(c2ccc(O)cc2)(c2ccc(O)cc2)c2ccccc21 | yes (1) |
| COc1ccc(OC(F)(F)F)cc1CN[C@H]1CCCN[C@H]1c1ccccc1 | no (0) |
| Nc1nc(=S)c2[nH]cnc2[nH]1 | no (0) |
| CCCCC(CC)COC(=O)CCCCCCCC(=O)OCC(CC)CCCC (stereo not drawn) | no (0) |
| Cc1c(C)c2c(c(C)c1O)CCC(C)(COc1ccc(CC3SC(=O)NC3=O)cc1)O2 (stereo not drawn) | no (0) |
